src = patent US20100022483A1

# Tested on: 3T3 fibroblast cells
# experimental details: In vitro phototoxicity assay (neutral red; UV light-treated vs dark control plates)
# Format: cell-based
# reported conditions: dark control plate
measurement type: Photo Toxicity Dark Tox50

Before answering, review these 8 worked examples.
- molecule: "CN(C)CCNCc1cccc(-c2ccc(O)c3c2C[C@H]2C[C@H]4[C@H](N(C)C)C(O)=C(C(N)=O)C(=O)[C@@]4(O)C(O)=C2C3=O)c1"
  measurement type: "Photo Toxicity Dark Tox50"
  observed value: ">139.98 µM"
- molecule: "CN1CCN(Cc2cccc(-c3ccc(O)c4c3C[C@H]3C[C@H]5[C@H](N(C)C)C(O)=C(C(N)=O)C(=O)[C@@]5(O)C(O)=C3C4=O)c2)CC1"
  measurement type: "Photo Toxicity Dark Tox50"
  observed value: ">200 µM"
- molecule: "CN(C)[C@@H]1C(O)=C(C(N)=O)C(=O)[C@@]2(O)C(O)=C3C(=O)c4c(O)ccc(-c5cccc(C(=O)NCCN6CCCC6)c5)c4C[C@H]3C[C@@H]12"
  measurement type: "Photo Toxicity Dark Tox50"
  observed value: ">127.91 µM"
- molecule: "CN(C)CCNC(=O)c1cccc(-c2cc(N(C)C)c3c(c2O)C(=O)C2=C(O)[C@]4(O)C(=O)C(C(N)=O)=C(O)[C@@H](N(C)C)[C@@H]4C[C@@H]2C3)c1"
  measurement type: "Photo Toxicity Dark Tox50"
  observed value: ">125.47 µM"
- molecule: "CCN(CC)CCCC(C)NC(=O)c1ccc(O)c2c1C[C@H]1C[C@H]3[C@H](N(C)C)C(O)=C(C(N)=O)C(=O)[C@@]3(O)C(O)=C1C2=O (stereo partly shown)"
  measurement type: "Photo Toxicity Dark Tox50"
  observed value: ">108.86 µM"
- molecule: "CN1CCN(C(=O)c2cccc(-c3ccc(O)c4c3C[C@H]3C[C@H]5[C@@H](N(C)C)C(O)=C(C(N)=O)C(=O)[C@@]5(O)C(O)=C3C4=O)c2)CC1"
  measurement type: "Photo Toxicity Dark Tox50"
  observed value: ">130.51 µM"
- molecule: "COCCNCC(=O)c1ccc(O)c2c1C[C@H]1C[C@H]3[C@H](N(C)C)C(O)=C(C(N)=O)C(=O)[C@@]3(O)C(O)=C1C2=O"
  measurement type: "Photo Toxicity Dark Tox50"
  observed value: ">157.68 µM"
- molecule: "CN(C)[C@@H]1C(O)=C(C(N)=O)C(=O)[C@@]2(O)C(O)=C3C(=O)c4c(O)ccc(C(=O)CNc5cccnc5)c4C[C@H]3C[C@@H]12"
  measurement type: "Photo Toxicity Dark Tox50"
  observed value: ">152.86 µM"

# per-item lookup of Photo Toxicity Dark Tox50; items listed below
1. CN(C)CCCCNCc1cccc(-c2ccc(O)c3c2C[C@H]2C[C@H]4[C@H](N(C)C)C(O)=C(C(N)=O)C(=O)[C@@]4(O)C(O)=C2C3=O)c1
2. CN(C)CCN(C)Cc1ccc(-c2ccc(O)c3c2C[C@H]2C[C@H]4[C@H](N(C)C)C(O)=C(C(N)=O)C(=O)[C@@]4(O)C(O)=C2C3=O)o1
3. COCCNCc1ccc(-c2ccc(O)c3c2C[C@H]2C[C@H]4[C@H](N(C)C)C(O)=C(C(N)=O)C(=O)[C@@]4(O)C(O)=C2C3=O)cc1
4. COc1ccc(-c2ccc(O)c3c2C[C@H]2C[C@H]4[C@H](N(C)C)C(O)=C(C(N)=O)C(=O)[C@@]4(O)C(O)=C2C3=O)cc1CNCC(N)=O
5. CCCCNC(=O)c1cccc(-c2ccc(O)c3c2C[C@H]2C[C@H]4[C@H](N(C)C)C(O)=C(C(N)=O)C(=O)[C@@]4(O)C(O)=C2C3=O)c1
6. CN(C)[C@H]1C(O)=C(C(N)=O)C(=O)[C@@]2(O)C(O)=C3C(=O)c4c(O)ccc(-c5cnc6ccccc6c5)c4C[C@H]3C[C@@H]12

Completion:
1: >134.59 µM; 2: >137.77 µM; 3: >146.03 µM; 4: >107.82 µM; 5: >151.73 µM; 6: >159.48 µM

Batch request: Photo Toxicity Dark Tox50 for each of the following molecules.
1. CN(C)CCCNC(=O)c1cccc(-c2ccc(O)c3c2C[C@H]2C[C@H]4[C@H](N(C)C)C(O)=C(C(N)=O)C(=O)[C@@]4(O)C(O)=C2C3=O)c1 [Q]
2. CC(=O)NCCNC(=O)c1cccc(-c2ccc(O)c3c2C[C@H]2C[C@H]4[C@H](N(C)C)C(O)=C(C(N)=O)C(=O)[C@@]4(O)C(O)=C2C3=O)c1
3. CN(C)CCNC(=O)c1cccc(-c2ccc(O)c3c2C[C@H]2C[C@H]4CC(O)=C(C(N)=O)C(=O)[C@@]4(O)C(O)=C2C3=O)c1
4. CN(C)c1cc(-c2cccc(C(N)=O)c2)c(O)c2c1C[C@H]1C[C@H]3[C@H](N(C)C)C(O)=C(C(N)=O)C(=O)[C@@]3(O)C(O)=C1C2=O
5. CN(C)[C@H]1C(O)=C(C(N)=O)C(=O)[C@@]2(O)C(O)=C3C(=O)c4c(O)ccc(-c5cccc(CCCN6CCCCC6)c5)c4C[C@H]3C[C@@H]12
6. CN(C)CC(=O)Nc1ccc(-c2ccc(O)c3c2C[C@H]2C[C@H]4[C@H](N(C)C)C(O)=C(C(N)=O)C(=O)[C@@]4(O)C(O)=C2C3=O)cc1
7. CN(C)[C@@H]1C(O)=C(C(N)=O)C(=O)[C@@]2(O)C(O)=C3C(=O)c4c(O)ccc(-c5ccc(CNCc6cccnc6)o5)c4C[C@H]3C[C@@H]12

Completion:
[">137.36 µM", ">129.75 µM", ">158.85 µM", ">146.26 µM", ">200 µM", ">135.63 µM", ">126.75 µM"]

###

Could you please report measured MIC for the items listed next?
# Test system: gram positive bacteria
# experimental details: In vitro anti-bacterial activity assay (broth dilution MIC), gram positive bacteria
# Assay type: cell-based, S. aureus
# reported conditions: Staphylococcus aureus, 18 h, S. aureus MRSA5; read-out: Median MIC's G+ S. aureus MRSA5
Answer by giving the amount and then stating its unit.

- compound: "CN(C)[C@@H]1C(O)=C(C(N)=O)C(=O)[C@@]2(O)C(O)=C3C(=O)c4c(O)ccc(-c5cccc(C(=O)NCCO)c5)c4C[C@H]3C[C@@H]12"
  observed value: "8 µg/mL"
- compound: "CN(C)[C@@H]1C(O)=C(C(N)=O)C(=O)[C@@]2(O)C(O)=C3C(=O)c4c(O)ccc(-c5cnc6ccccc6c5)c4C[C@H]3C[C@@H]12"
  observed value: "0.5 µg/mL"
- compound: "COCCNCc1ccoc1-c1ccc(O)c2c1C[C@H]1C[C@H]3[C@H](N(C)C)C(O)=C(C(N)=O)C(=O)[C@@]3(O)C(O)=C1C2=O"
  observed value: "4 µg/mL"
- compound: "CN1CCN(CC(=O)c2ccc(O)c3c2C[C@H]2C[C@H]4[C@H](N(C)C)C(O)=C(C(N)=O)C(=O)[C@@]4(O)C(O)=C2C3=O)CC1"
  observed value: "16 µg/mL"

Record MIC for all entries; do not skip any.
1. CN(C)[C@@H]1C(O)=C(C(N)=O)C(=O)[C@@]2(O)C(O)=C3C(=O)c4c(O)ccc(-c5cccc(C(=O)NCc6ccco6)c5)c4C[C@H]3C[C@@H]12
2. CN(C)[C@@H]1C(O)=C(C(N)=O)C(=O)[C@@]2(O)C(O)=C3C(=O)c4c(O)ccc(-c5ccc(NC(=O)CNC(C)(C)C)cc5)c4C[C@H]3C[C@@H]12
3. CN(C)CCCc1cccc(-c2ccc(O)c3c2C[C@H]2C[C@H]4[C@H](N(C)C)C(O)=C(C(N)=O)C(=O)[C@@]4(O)C(O)=C2C3=O)c1
4. CN(CCC#N)Cc1cccc(-c2ccc(O)c3c2C[C@H]2C[C@H]4[C@H](N(C)C)C(O)=C(C(N)=O)C(=O)[C@@]4(O)C(O)=C2C3=O)c1

Completion:
["1 µg/mL", "4 µg/mL", "4 µg/mL", "2 µg/mL"]

Would you mind giving MIC for every compound in the list below?
1. CN(C)CCN(C)Cc1ccc(-c2ccc(O)c3c2C[C@H]2C[C@H]4[C@H](N(C)C)C(O)=C(C(N)=O)C(=O)[C@@]4(O)C(O)=C2C3=O)o1
2. CC(C)N(CCNC(=O)c1cccc(-c2ccc(O)c3c2C[C@H]2C[C@H]4[C@H](N(C)C)C(O)=C(C(N)=O)C(=O)[C@@]4(O)C(O)=C2C3=O)c1)C(C)C
3. CN(C)CCNCc1ccc(-c2ccc(O)c3c2C[C@H]2C[C@H]4[C@H](N(C)C)C(O)=C(C(N)=O)C(=O)[C@@]4(O)C(O)=C2C3=O)o1
4. CC(=O)Nc1cccc(-c2ccc(O)c3c2C[C@H]2C[C@H]4[C@H](N(C)C)C(O)=C(C(N)=O)C(=O)[C@@]4(O)C(O)=C2C3=O)c1
5. CN(C)CCCNCc1cccc(-c2ccc(O)c3c2C[C@H]2C[C@H]4[C@H](N(C)C)C(O)=C(C(N)=O)C(=O)[C@@]4(O)C(O)=C2C3=O)c1
6. CCN(CC)CCNC(=O)c1cccc(-c2ccc(O)c3c2C[C@H]2C[C@H]4[C@H](N(C)C)C(O)=C(C(N)=O)C(=O)[C@@]4(O)C(O)=C2C3=O)c1
7. COC(=O)c1ccc(-c2ccc(O)c3c2C[C@H]2C[C@H]4[C@H](N(C)C)C(O)=C(C(N)=O)C(=O)[C@@]4(O)C(O)=C2C3=O)cc1
8. CN(C)[C@@H]1C(O)=C(C(N)=O)C(=O)[C@@]2(O)C(O)=C3C(=O)c4c(O)ccc(C(=O)CNCC(C)(C)C)c4C[C@H]3C[C@@H]12

Completion:
16 µg/mL
4 µg/mL
64 µg/mL
4 µg/mL
8 µg/mL
16 µg/mL
0.315 µg/mL
16 µg/mL
